Tested on: 377384-186-R-J1-PDC complex spheroid viability;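 further: spheroids exposed to compounds for seven days before readout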
Assay Name: Anticancer human tumor 377384-186-R-J1-PDC patient-derived pancreatic carcinoma cell line growth inhibition [RAS]; active means viability on the fitted dose curve at most 10% of control; inactive means the rest
Reported Conditions: second compound 0.0949 µM; first compound 0.316 µM
Give your call using only these classes: active, inactive

Can you look up the reported call for CC(Nc1ccc2c(c1)OCCn1cc(N3C(=O)OCC3C(F)F)nc1-2)C(N)=O (configuration not stated) + CCn1c(-c2cccnc2C(C)OC)c2c3cc(ccc31)N1CCOC(CC(NC(=O)C(C(C)C)N(C)C(=O)C3(F)CCN(C(=O)C#CC(C)(C)N(C)C)CC3)C(=O)N3CCCC(N3)C(=O)OCC(C)(C)C2)C1 for me?
inactive

Can you look up the reported call for CCN1CCN(Cc2ccc(Nc3ncc(F)c(-c4cc(F)c5nc(C)n(C(C)C)c5c4)n3)nc2)CC1 + CCn1c(-c2cc(N3CCN(C)CC3)cnc2C(C)OC)c2c3cc(ccc31)-c1csc(n1)CC(NC(=O)C1CC1C)C(=O)N1CCCC(N1)C(=O)OCC(C)(C)C2 for me?
active

Can you look up the reported call for CC(=O)OC12COC1CC(O)C1(C)C(=O)C(O)C3=C(C)C(OC(=O)C(O)C(NC(=O)OC(C)(C)C)c4ccccc4)CC(O)(C(OC(=O)c4ccccc4)C21)C3(C)C (configuration not stated) + CCn1c(-c2cc(N3CCN(C)CC3)cnc2C(C)OC)c2c3cc(ccc31)-c1csc(n1)CC(NC(=O)C1CC1C)C(=O)N1CCCC(N1)C(=O)OCC(C)(C)C2 for me?
active

Can you look up the reported call for C=CC(=O)Nc1cc(Nc2nccc(-c3cn(C)c4ccccc34)n2)c(OC)cc1N(C)CCN(C)C + CCn1c(-c2cc(N3CCN(C)CC3)cnc2C(C)OC)c2c3cc(ccc31)-c1csc(n1)CC(NC(=O)C1CC1C)C(=O)N1CCCC(N1)C(=O)OCC(C)(C)C2 for me?
active

Can you look up the reported call for C=CC(=O)N1CCN(c2nc(OCC3CCCN3C)nc3c(F)c(-c4nc(N)cc(C)c4C(F)(F)F)c(Cl)cc23)C(C)C1 (configuration not stated) + CCn1c(-c2cc(N3CCN(C)CC3)cnc2C(C)OC)c2c3cc(ccc31)-c1csc(n1)CC(NC(=O)C1CC1C)C(=O)N1CCCC(N1)C(=O)OCC(C)(C)C2 for me?
active

Can you look up the reported call for NC1c2ccccc2OC12CCN(c1cnc3c(N4CCCc5ncccc54)n[nH]c3n1)CC2 (configuration not stated) + CCn1c(-c2cccnc2C(C)OC)c2c3cc(ccc31)N1CCOC(CC(NC(=O)C(C(C)C)N(C)C(=O)C3(F)CCN(C(=O)C#CC(C)(C)N(C)C)CC3)C(=O)N3CCCC(N3)C(=O)OCC(C)(C)C2)C1 for me?
inactive

Can you look up the reported call for CC(C)NCC(C(=O)N1CCN(c2ncnc3c2C(C)CC3O)CC1)c1ccc(Cl)cc1 (configuration not stated) + CCn1c(-c2cccnc2C(C)OC)c2c3cc(ccc31)N1CCOC(CC(NC(=O)C(C(C)C)N(C)C(=O)C3(F)CCN(C(=O)C#CC(C)(C)N(C)C)CC3)C(=O)N3CCCC(N3)C(=O)OCC(C)(C)C2)C1 for me?
inactive
